STUDY_TARGET: T1, human LAP-TGFB1 Fc fusion (human)
T1 construct: also called human LAP-TGFβ1-Fc; human LAP-TGFβ-Fc isoform 1
T1 sequence (chain, as listed by the source limits assumed): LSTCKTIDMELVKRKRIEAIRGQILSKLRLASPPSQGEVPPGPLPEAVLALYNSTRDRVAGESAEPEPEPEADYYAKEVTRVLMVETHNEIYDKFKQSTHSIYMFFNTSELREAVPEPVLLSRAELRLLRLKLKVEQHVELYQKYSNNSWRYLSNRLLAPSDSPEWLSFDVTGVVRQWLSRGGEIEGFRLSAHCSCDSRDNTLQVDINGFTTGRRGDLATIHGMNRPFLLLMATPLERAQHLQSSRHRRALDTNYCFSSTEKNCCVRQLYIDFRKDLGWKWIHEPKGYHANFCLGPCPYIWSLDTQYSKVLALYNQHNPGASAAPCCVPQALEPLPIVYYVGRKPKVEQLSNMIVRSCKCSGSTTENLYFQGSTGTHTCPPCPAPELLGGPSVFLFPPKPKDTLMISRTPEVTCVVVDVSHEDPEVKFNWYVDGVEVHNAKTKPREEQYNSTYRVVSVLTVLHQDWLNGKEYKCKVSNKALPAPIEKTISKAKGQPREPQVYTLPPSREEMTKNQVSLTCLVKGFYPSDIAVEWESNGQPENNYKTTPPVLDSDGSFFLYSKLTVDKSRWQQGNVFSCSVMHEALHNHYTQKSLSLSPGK
EXPERIMENTAL_PROTOCOL: BLI off-rate screen
Overview of recorded Binding response for various binders
The reply should contain only the number, in nm.

Given the binder VH H35Y (73BIT) (Fab, V domains shown) VH: EVQLVQSGAEVKKPGASVKVSCKASGYTFTSYWMYWVRQAPGQGLEWMGRIDPQSGGIKYAQKFQGRATLTVDTSTSTAYMELSRLRSDDTAVYYCARWDYGGYFDVWGQGTLVTVSS VL: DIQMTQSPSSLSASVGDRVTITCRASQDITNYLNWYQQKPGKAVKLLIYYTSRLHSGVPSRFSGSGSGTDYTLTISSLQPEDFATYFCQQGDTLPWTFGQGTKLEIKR , write its reported Binding response.
0.334

Given the binder VL R53Y (50BIT) (Fab, V domains shown) VH: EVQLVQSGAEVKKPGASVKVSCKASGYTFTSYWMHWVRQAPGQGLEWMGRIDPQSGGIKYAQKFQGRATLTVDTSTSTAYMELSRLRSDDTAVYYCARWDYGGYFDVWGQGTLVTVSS VL: DIQMTQSPSSLSASVGDRVTITCRASQDITNYLNWYQQKPGKAVKLLIYYTSYLHSGVPSRFSGSGSGTDYTLTISSLQPEDFATYFCQQGDTLPWTFGQGTKLEIKR , write its reported Binding response.
0.365

Given the binder VL S56Y (53BIT) (Fab, V domains shown) VH: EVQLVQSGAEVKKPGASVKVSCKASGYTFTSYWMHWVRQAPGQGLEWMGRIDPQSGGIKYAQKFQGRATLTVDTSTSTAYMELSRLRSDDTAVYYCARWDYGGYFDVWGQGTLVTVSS VL: DIQMTQSPSSLSASVGDRVTITCRASQDITNYLNWYQQKPGKAVKLLIYYTSRLHYGVPSRFSGSGSGTDYTLTISSLQPEDFATYFCQQGDTLPWTFGQGTKLEIKR , write its reported Binding response.
0.344
